Overview of recorded inhibition at 0.5 h, 1 µM for various compounds
Target: CYP2C19 (Homo sapiens, UniProt P33261)
Sequence (P33261 whole entry): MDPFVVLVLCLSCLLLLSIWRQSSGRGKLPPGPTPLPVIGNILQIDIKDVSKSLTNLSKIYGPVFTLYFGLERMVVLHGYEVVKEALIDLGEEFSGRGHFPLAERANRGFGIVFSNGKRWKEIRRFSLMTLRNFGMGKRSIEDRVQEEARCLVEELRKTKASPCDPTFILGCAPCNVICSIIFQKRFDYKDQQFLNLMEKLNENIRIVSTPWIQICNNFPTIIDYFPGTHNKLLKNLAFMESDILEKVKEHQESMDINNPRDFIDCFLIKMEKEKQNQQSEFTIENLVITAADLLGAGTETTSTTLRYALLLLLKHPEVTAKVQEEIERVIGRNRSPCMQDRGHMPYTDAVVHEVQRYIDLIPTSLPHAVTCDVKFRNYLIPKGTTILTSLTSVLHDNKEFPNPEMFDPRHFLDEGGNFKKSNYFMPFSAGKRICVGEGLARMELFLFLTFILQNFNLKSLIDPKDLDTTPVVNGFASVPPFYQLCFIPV
Assay: Inhibition of recombinant human CYP2C19 expressed in insect cell microsomes at 1 uM using Luciferin-H EGE as substrate preincubated for 20 mins followed by NADPH addition measured after 30 mins by luminometric method
Format: ADME
Conditions: probe Luciferin-H EGE
endpoint_name: inhibition at 0.5 h, 1 µM

{"structure_notation": "COc1cc(C(=O)NC(=N)Nc2ccc(C)c(NC(=O)c3ccc(-c4ccccc4)cc3)c2)cc(OC)c1OC.Cl", "endpoint_name": "inhibition at 0.5 h, 1 µM", "measured_value": "57%"}
{"structure_notation": "COc1cc(C(=O)NC(=N)Nc2ccc(C)c(NC(=O)c3ccc(CCc4ccccc4)cc3)c2)cc(OC)c1OC.Cl", "endpoint_name": "inhibition at 0.5 h, 1 µM", "measured_value": "67%"}
{"structure_notation": "COc1cc(C(=O)NC(=N)Nc2ccc(C)c(NC(=O)c3ccc(-c4ccc(F)cc4)cc3)c2)cc(OC)c1OC.Cl", "endpoint_name": "inhibition at 0.5 h, 1 µM", "measured_value": "59%"}
{"structure_notation": "COc1cc(C(=O)NC(=S)Nc2ccc(C)c(NC(=O)c3ccc(-c4ccc(F)cc4)cc3)c2)cc(OC)c1OC", "endpoint_name": "inhibition at 0.5 h, 1 µM", "measured_value": "25%"}

* * *

Organism: Homo sapiens
Assay: Substrate activity at recombinant human P-gp in membrane fraction assessed as increase in ATPase activity at 10 uM by luminescent P-gp-Glo assay relative to control

{"compound": "COc1cc(C(=O)NC(=N)Nc2ccc(C)c(NC(=O)c3ccc(CCc4ccccc4)cc3)c2)cc(OC)c1OC.Cl", "fold change (FC)": 1.4}
{"compound": "COc1ccc(CCN(C)CCCC(C#N)(c2ccc(OC)c(OC)c2)C(C)C)cc1OC (stereo not given)", "fold change (FC)": 8.5}
{"compound": "COc1cc(C(=O)NC(=N)Nc2ccc(C)c(NC(=O)c3ccc(-c4ccccc4)cc3)c2)cc(OC)c1OC.Cl", "fold change (FC)": 4.8}
{"compound": "COc1cc(C(=O)NC(=S)Nc2ccc(C)c(NC(=O)c3ccc(-c4ccc(F)cc4)cc3)c2)cc(OC)c1OC", "fold change (FC)": 3}
{"compound": "COc1cc(C(=O)NC(=N)Nc2ccc(C)c(NC(=O)c3ccc(-c4ccc(F)cc4)cc3)c2)cc(OC)c1OC.Cl", "fold change (FC)": 2.3}

The reported numbers originate from ChEMBL document CHEMBL4270604.
